Consider the following molecules; for each one, report its normalized growth.
experimental.details: chemical genetic growth profiling, strain panel (AID 1159580);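 also: tested at 20 µM; growth read once vehicle control cultures reached saturation at 30 °C; 1 = growth at the plate median or of vehicle wells; lower values mean less growth of the strain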
stated.conditions: S. cerevisiae deletion strains, growth OD, locus YLR268W, strain sec22, stronger effect = lower value
About 2,000 (36%) of roughly 5,500 compounds were called active. Another 18% or so got no clear call; they are omitted. The list shows a part of the results.
Lab note: record the figure alone, no unit after it.

Return reported normalized growth; argument: CC(CN(C)C)CN1c2ccccc2CCc2ccccc21 (stereo not given)
1.02

Return reported normalized growth; argument: CCCCCC1C(=O)CCC1CC(=O)O (stereo not given)
1

Return reported normalized growth; argument: Cc1cccc(Nc2ccncc2S(=O)(=O)NC(=O)NC(C)C)c1
1.02

Return reported normalized growth; argument: CCCCSP(=O)(SCCCC)SCCCC
1.01

Return reported normalized growth; argument: CCC(=O)c1ccc2c(c1)N(CC(C)N(C)C)c1ccccc1S2 (stereo not given)
0.986
